- target_desc: 3CLpro (Severe acute respiratory syndrome coronavirus 2, UniProt P0DTD1)
- experiment_summary: SARS-CoV-2 3CLpro protease assay (duplex, SAMDI-MS)
- Type: biochemical
- Design: For the duplex assay, 3CLpro and HRV3C was added
- recorded_conditions: 3CLpro, 30 mins preincubation, class symbols; read-out: SARS-Cov-2 IC50
measurement_type: IC50

Examples from the recorded data:
| compound | IC50 |
| --- | --- |
| O=C1NCC[C@H]1C[C@H](NC(=O)[C@@H]1[C@H]2CCC[C@H]2CN1C(=O)c1cc2c(Cl)c(F)c(Cl)cc2[nH]1)C(=O)CO | 20 to 200 nM |
| COc1cccc2[nH]c(C(=O)N3C[C@@H]4CCC[C@@H]4[C@H]3C(=O)NC(C[C@@H]3CCNC3=O)C(=O)C(C)O)cc12 (some centres unmarked) | 200 to 2000 nM |
| COc1cccc2[nH]c(C(=O)N3C[C@H](C(F)(F)F)C[C@H]3C(=O)N[C@@H](C[C@@H]3CCCNC3=O)C(=O)COCc3ccccc3)cc12 [Compound 45A] | 20 to 200 nM |
| COc1ccc2[nH]c(C(=O)N3CCC4(CC4)C[C@H]3C(=O)N[C@@H](C[C@@H]3CCNC3=O)C(=O)C(=O)NC3CC3)cc2c1 | 20 to 200 nM |
| COc1ccc(Cl)c2cc(C(=O)N3C[C@@H]4CCC[C@@H]4[C@H]3C(=O)N[C@@H](C[C@@H]3CCNC3=O)C(=O)CO)[nH]c12 | 20 to 200 nM |
| O=C(NCc1ccccc1)C(=O)[C@H](Cc1cc[nH]n1)NC(=O)[C@@H]1CC2(CC2)CN1C(=O)c1cc2ccccc2[nH]1 | 2000 to 20000 nM |
| COc1cccc2[nH]c(C(=O)N3C[C@@H]4CCC[C@@H]4[C@H]3C(=O)N[C@@H](CC3CC(C)(C)NC3=O)C(=O)COCc3ccccc3)cc12 (relative stereo) | 20 to 200 nM |
| CC(F)(F)c1cccc2[nH]c(C(=O)N3C[C@@H]4CCC[C@@H]4[C@H]3C(=O)N[C@@H](C[C@@H]3CCNC3=O)C(=O)CO)cc12 | 20 to 200 nM |

Working through the 3 compounds below one at a time, give IC50 for each.
1. N#C[C@H](C[C@@H]1CCNC1=O)NC(=O)[C@@H]1[C@H]2CCC[C@H]2CN1C(=O)c1cc2c(OC(F)F)cccc2[nH]1
2. O=C1NCC[C@H]1C[C@H](NC(=O)[C@@H]1[C@H]2CCC[C@H]2CN1C(=O)c1cc(-c2ccccc2)c[nH]1)C(=O)CO
3. COc1ccc(F)c2[nH]c(C(=O)N3C[C@@H]4CCC[C@@H]4[C@H]3C(=O)N[C@H](C#N)C[C@@H]3CCNC3=O)cc12

Outgoing:
["200 to 2000 nM", "20 to 200 nM", "200 to 2000 nM"]

Batch: IC50 for all items listed.
1. COc1cccc2[nH]c(C(=O)N3C[C@@H]4CCC[C@@H]4[C@H]3C(=O)N[C@@H](C[C@@H]3CCCNC3=O)C(O)S(=O)(=O)O)cc12 (some centres unmarked)
2. CC(C)(C)C(=O)OCC(=O)[C@H](C[C@@H]1CCNC1=O)NC(=O)[C@@H]1[C@H]2CCC[C@H]2CN1C(=O)c1cc2c(Cl)cc(Cl)cc2[nH]1
3. COc1cccc2[nH]c(C(=O)N3C[C@@H]4CCC[C@@H]4[C@H]3C(=O)N[C@@H](C[C@@H]3CCNC3=O)C(=O)c3nc4ccccc4[nH]3)cc12
4. O=C1NCC[C@H]1C[C@H](NC(=O)[C@@H]1[C@H]2CCC[C@H]2CN1C(=O)c1cc2c(Cl)ccc(OCc3ccccc3)c2[nH]1)C(=O)CO
5. COc1cccc2[nH]c(C(=O)N3CCC4(CC4)C[C@H]3C(=O)N[C@@H](C[C@@H]3CCNC3=O)C(=O)C(=O)NC3CC3)cc12

Outgoing:
1. < 20 nM
2. 200 to 2000 nM
3. 200 to 2000 nM
4. 20 to 200 nM
5. < 20 nM

# batch: return IC50 for each of the 6 compounds below
1. O=C1NCC[C@H]1C[C@H](NC(=O)[C@@H]1[C@H]2CCC[C@H]2CN1C(=O)c1cc2c(Cl)cc(F)cc2[nH]1)C(=O)CO
2. O=C(NCc1ccccc1)C(=O)C(C[C@@H]1CCNC1=O)NC(=O)[C@@H]1C[C@@H](Oc2ccccc2)CN1C(=O)c1cc2ccccc2[nH]1 (some centres unmarked)
3. N#Cc1cccc2[nH]c(C(=O)N3C[C@@H]4CCC[C@@H]4[C@H]3C(=O)NC(C[C@@H]3CCNC3=O)C(=O)COCc3ccccc3)cc12 (some centres unmarked) [Compound 66A]
4. COc1cccc2[nH]c(C(=O)N3C[C@]4(C[C@H]3C(=O)N[C@@H](C[C@@H]3CCCNC3=O)C(=O)CO)CC4(F)F)cc12
5. O=C(NC1CC1)C(=O)[C@H](C[C@@H]1CCNC1=O)NC(=O)[C@@H]1CC2(CCN1C(=O)c1cc3ccccc3[nH]1)CC2
6. COc1cc(F)c(F)c2[nH]c(C(=O)N3C[C@@H]4CCC[C@@H]4[C@H]3C(=O)N[C@@H](C[C@@H]3CCNC3=O)C(=O)CO)cc12

Outgoing:
["< 20 nM", "20000 to 100000 nM", "200 to 2000 nM", "20 to 200 nM", "20 to 200 nM", "< 20 nM"]

Incoming: Report the value of IC50 obtained on 3CLpro (Severe acute respiratory syndrome coronavirus 2, UniProt P0DTD1) for `COc1cccc2[nH]c(C(=O)N3C[C@@H]4CCC[C@@H]4[C@H]3C(=O)N[C@@H](CN3C[C@H](O)CC3=O)C(=O)C(=O)NC3CC3)cc12` .
Outgoing: 2000 to 20000 nM
